Reference for the values: ChEMBL document CHEMBL1157539

List of Inhibition values.
# Test system: Plasmodium falciparum
# METHOD NOTES: GSK_TCMDC: Inhibition of Plasmodium falciparum Dd2 in whole red blood cells, using parasite LDH activity as an index of growth. Test compounds present at 2uM
# Type: functional
RECORDED METRIC: Inhibition

INSERT INTO results (compound, recorded_metric, experimental_result) VALUES
  ('CCCCCCOc1ccc2ccccc2c1CNCCCCCCNCc1c(OCCCCCC)ccc2ccccc12.CS(=O)(=O)O', 'Inhibition', '55%'),
  ('CCCC(=O)NC(c1ccc(C(C)C)cc1)c1ccc2cccnc2c1O (stereo not drawn)', 'Inhibition', '37%'),
  ('COc1ccc2c(=O)c(-c3ccc(OC(F)(F)F)cc3)c(C)[nH]c2c1', 'Inhibition', '96%'),
  ('Br.CCCN(CCCCCCN(CCC)CCc1ccc(O)c(O)c1)CCc1ccc(O)cc1', 'Inhibition', '5%'),
  ('CC(C)COc1ccc(Cl)cc1Cc1ccc(-c2nc3ccc(Br)cc3[nH]2)o1.Cl', 'Inhibition', '75%'),
  ('COc1ccc2nccc([C@@H](O)CN3CCC(NCCOc4c(C)cccc4F)CC3)c2c1.O=C(O)C(=O)O', 'Inhibition', '95%'),
  ('O=C(Nc1cccc(CN2CCCN(Cc3cccc(O)c3)CC2)c1)c1ccc2ccccc2c1.O=C(O)C(F)(F)F', 'Inhibition', '42%'),
  ('Cc1c(CNCCN2CCCCC2)c(C(=O)O)c(C)n1Cc1ccc(Cl)cc1', 'Inhibition', '93%'),
  ('CCOC(=O)C1CCN(CCCNC(=O)/C(=C/C=C/c2cc3cc(Cl)c(Cl)cc3[nH]2)OC)CC1', 'Inhibition', '78%'),
  ('COc1cc(C)nc2ccc(NC(=O)c3cc(C(F)(F)F)cc(C(F)(F)F)c3)cc12.Cl', 'Inhibition', '99%'),
  ('O=C(O)C(F)(F)F.O=C1CCCN1CCCNCc1cccc(-c2cccc(-c3nc4cc(C(F)(F)F)ccc4[nH]3)c2)c1', 'Inhibition', '90%'),
  ('COC(=O)Nc1nc2cc3c(cc2s1)OCCO3', 'Inhibition', '0%'),
  ('FC(F)(F)c1cccc2c(NN=Cc3ccccc3)ccnc12', 'Inhibition', '90%'),
  ('CCN(CC)CCN(Cc1ccc(-c2ccc(C(F)(F)F)cc2)cc1)C(=O)Cn1cc(Cc2cnn(C)c2)c(=O)nc1/C=C/c1cccc(F)c1F.O=C(O)C(O)C(O)C(=O)O', 'Inhibition', '98%'),
  ('CCOC(=O)C(CO)NC(=O)c1ccc([N+](=O)[O-])o1 (stereo not drawn)', 'Inhibition', '2%'),
  ('CC(=O)Nc1ccc2[nH]cc(C3CCN(CC4CCN(C(=O)/C=C/c5ccc(Cl)c(Cl)c5)CC4)CC3)c2n1', 'Inhibition', '99%'),
  ('O=C(O)C(F)(F)F.OCCN1CCN(Cc2ccc(-c3cccc(-c4nc5ccccc5[nH]4)c3)cc2)CC1', 'Inhibition', '16%'),
  ('CCOC(=O)CC[C@@H](NC(=O)c1ccc(NCc2ccc3ccc4nc(C)[nH]c(=O)c4c3c2)cc1F)C(=O)N[C@@H](Cc1c[nH]c2ccccc12)C(=O)OCC', 'Inhibition', '77%');

###

Measured Inhibition of individual entries
# Test system: Plasmodium falciparum
# METHOD NOTES: GSK_TCMDC: Inhibition of Plasmodium falciparum Dd2 in whole red blood cells, using parasite LDH activity as an index of growth. Test compounds present at 2uM
# Assay type: functional
RECORDED METRIC: Inhibition (%)

INSERT INTO assay_data (compound, recorded_metric, experimental_result) VALUES
  ('Cc1cccc2[nH]c(-c3cc(-c4cn[nH]c4)cnc3N)nc12', 'Inhibition', 93),
  ('O=C(O)C(F)(F)F.c1cc(CN2CCc3ccccc3CC2)cc(-c2c[nH]c3nc(NC4CCCC4)ncc23)c1', 'Inhibition', 49),
  ('CCc1ccccc1N1CCN(CCCC(=O)c2ccc(NC(=O)c3ccc(Cl)cc3)cc2)CC1', 'Inhibition', 4),
  ('CN1CCC(N2CCN(Cc3ccc(-c4cccc(-c5nc6ccccc6[nH]5)c4)cc3)CC2)CC1.O=C(O)C(F)(F)F', 'Inhibition', 100),
  ('Cc1cc(S(=O)(=O)N2CCCCC(c3ccc(C(F)(F)F)cc3)=N2)c(Cl)cc1Cl', 'Inhibition', 97),
  ('COc1ccc2ncc(F)c(CCN3CCC[C@H](CNCc4ccc5c(n4)NC(=O)CS5)C3)c2n1.Cl', 'Inhibition', 34),
  ('NCC1CCCN1Cc1ccc(-c2cccc(-c3nc4cc(C(F)(F)F)ccc4[nH]3)c2)cc1.O=C(O)C(F)(F)F (stereo not drawn)', 'Inhibition', 97),
  ('O=C(O[C@@H]1CN[C@H](C#Cc2cc3ncnc(Nc4ccc5c(cnn5Cc5cccc(F)c5)c4)c3s2)C1)N1CCCC1', 'Inhibition', 56);

###

# Test system: Plasmodium falciparum
# METHOD NOTES: GSK_TCMDC: Inhibition of Plasmodium falciparum Dd2 in whole red blood cells, using parasite LDH activity as an index of growth. Test compounds present at 2uM
# Format: functional
Assign criterion met whenever Inhibition does not fall below 10%; assign criterion not met whenever it does.

INSERT INTO results (compound, tested_on, assigned_label) VALUES
  ('CC(C)C[C@H]1C(=O)N[C@H](C2Cc3ccccc3C2)C(=O)N1[C@@H](C(=O)Nc1ccccc1OCc1ccccc1)c1ccc(F)cc1F', 'Plasmodium falciparum', 'criterion met'),
  ('CC(C)NC(C)(C)CN(Cc1ccc(-c2ccc(C(F)(F)F)cc2)cc1)C(=O)Cn1c(CCc2cccc(F)c2F)nc(=O)c2ccccc21', 'Plasmodium falciparum', 'criterion met'),
  ('CC(=O)c1cccc2c(NC(=O)Nc3ccc4nccc(N5CCN(C)CC5)c4c3)cccc12.Cl', 'Plasmodium falciparum', 'criterion met'),
  ('O=C(O)/C=C\C(=O)O.OCCN1CCN(C2Cc3ccc(F)cc3Sc3ccc(Cl)cc32)CC1 (centres undefined)', 'Plasmodium falciparum', 'criterion met'),
  ('COc1ccc(O)c(C(=O)c2cnc3c(c2)c(-c2ccc(F)cc2)c(C#N)c(=O)n3C)c1', 'Plasmodium falciparum', 'criterion met'),
  ('Cc1cc(N[C@@H](CC(C)C)C(=O)NCc2cccs2)nc(NCCc2ccccc2)n1.O=C(O)C(F)(F)F', 'Plasmodium falciparum', 'criterion not met'),
  ('Cc1cc(N2CCN(CC3CCCCC3)CC2)nc(Nc2ccc(Br)cc2)n1', 'Plasmodium falciparum', 'criterion met'),
  ('COc1cc2c(cc1NS(=O)(=O)c1ccc(OCc3ccc(Br)cc3)cc1)CCN(C1CCC1)CC2.Cl', 'Plasmodium falciparum', 'criterion met'),
  ('Cc1cc(C)n(Cc2ccc(C(=O)NCC3CCCCC3)cc2)n1', 'Plasmodium falciparum', 'criterion not met');

###

# System: Plasmodium falciparum
# METHOD NOTES: GSK_TCMDC: Inhibition of Plasmodium falciparum 3D7 in whole red blood cells, using parasite LDH activity as an index of growth. Test compounds present at 2uM
# Format: functional
Overview of recorded Inhibition for various molecules
RECORDED METRIC: Inhibition (%)

INSERT INTO measurements (molecule, readout_units, experimental_result) VALUES
  ('Cc1cc(N[C@@H](Cc2ccccc2)C(=O)Nc2ccccc2)nc(NCCc2cccnc2)n1.O=C(O)C(F)(F)F', '%', 95),
  ('Cl.N#Cc1ccc2c(c1)CCN(CCC1CCC(NC(=O)/C=C/c3ccc4ccccc4c3)CC1)CC2 (stereo not drawn)', '%', 97),
  ('CC(C)NCc1ccc(-c2cccc(-c3nc4cc(C(F)(F)F)ccc4[nH]3)c2)cc1.O=C(O)C(F)(F)F', '%', 100),
  ('Cc1ccc(Cl)cc1NC(=O)c1c(-c2ccccc2Cl)noc1C', '%', 88),
  ('Cl.O=C(Nc1ccc2nccc(N3CCN4CCC[C@H]4C3)c2c1)c1ccc(Cl)c(Cl)c1', '%', 100),
  ('CC(=O)Nc1ccc(CN(Cc2cccc(OC(C)(C)C)c2)Cc2ccc3c(c2)OCCO3)cc1', '%', 95),
  ('COc1ccc2ncc(F)c([C@@H](O)CN3CCC(NCc4ccc5c(c4)NCCS5)CC3)c2n1.Cl', '%', 99),
  ('CCNc1cc(C(=O)N[C@@H](Cc2ccoc2)[C@H](O)CNC(C)CCCC(C)C)cc(N2CCCCS2(=O)=O)c1.Cl (stereo partly drawn)', '%', 99);

###

# System: Plasmodium falciparum
# METHOD NOTES: GSK_TCMDC: Inhibition of Plasmodium falciparum 3D7 in whole red blood cells, using parasite LDH activity as an index of growth. Test compounds present at 2uM
# Type: functional
Listed here are molecules together with their documented Inhibition.
RECORDED METRIC: Inhibition (%)

INSERT INTO measurements (molecule, tested_on, readout_units, experimental_result) VALUES
  ('O=C(NCC1CCC(CNCCCc2ccccc2)CC1)c1cc(Cl)cc(Cl)c1 (stereo not given)', 'Plasmodium falciparum', '%', 89),
  ('CCCCNCc1ccc(-c2nc(CN(Cc3ccc(Cl)c(Cl)c3)S(=O)(=O)c3ccc(NC(C)=O)cc3)cs2)cc1.O=C(O)C(F)(F)F', 'Plasmodium falciparum', '%', 96),
  ('O=C(NC1CCN(c2ccnc3cc(Cl)ccc23)C1)c1ccc(F)cc1F.O=C(O)C(F)(F)F (stereo not given)', 'Plasmodium falciparum', '%', 100),
  ('O=C(NC1CCN(Cc2ccc(Cl)cc2)CC1)c1cn(-c2ccccc2)nc1-c1cccnc1', 'Plasmodium falciparum', '%', 93),
  ('CCCC(=O)NC(c1ccc(C(C)C)cc1)c1ccc2cccnc2c1O (stereo not given)', 'Plasmodium falciparum', '%', 90);
